Entry source: the supplement of paper PMC6555819

Test system: VDR homodimer (NR concentration 270 nM)
protocol: PBM binding z-score (relative to random genomic background probes); higher = stronger binding; sequences stand for … in GC…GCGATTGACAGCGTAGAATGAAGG

[
  {
    "residue sequence": "CCTACTGGGCCATAAAGGTCATTGATGCCGATAA",
    "PBM binding z-score": 2.92
  },
  {
    "residue sequence": "CTCGAAAGGTCGCTTGAGGTGAGTATACGGATAA",
    "PBM binding z-score": 0.912
  },
  {
    "residue sequence": "TCTTGTAGATCAACAGGAGGTTAAGAATGATCGA",
    "PBM binding z-score": 0.202
  },
  {
    "residue sequence": "ATCCCTAGGTAACCAAGTTCAGTGAATGCCGAAC",
    "PBM binding z-score": 2.77
  },
  {
    "residue sequence": "GCTCGGAGGACAAGGTCGGAGCTTTGTCCGTAGA",
    "PBM binding z-score": -0.608
  },
  {
    "residue sequence": "GCAGACAGGTGAACCGCAGGTAACTCAGGGTGGC",
    "PBM binding z-score": -0.237
  }
]

====

System: PXR homodimer (NR concentration 270 nM)
protocol: PBM binding z-score (relative to random genomic background probes); higher = stronger binding; sequences stand for … in GC…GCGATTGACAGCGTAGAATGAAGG
Label no if PBM binding z-score falls below 0.6; label yes in every other case.

[
  {
    "residue sequence": "CCTTACGGGTCCCGAGGTTATAGCACGACGAGCG",
    "assigned label": "no"
  },
  {
    "residue sequence": "CCAGACAGGTCAGAAGGTAACTCAGCCTCGATTA",
    "assigned label": "no"
  },
  {
    "residue sequence": "TATCCTAGGTCATGCGGGCCAGTATAGTGTCGGC",
    "assigned label": "no"
  },
  {
    "residue sequence": "CCTAGTTGGTCAGGAGGTCACACAGCGGATATGA",
    "assigned label": "yes"
  },
  {
    "residue sequence": "CCTAGCAGGCCAATCTGGGTCAGTCAAGGCTTGA",
    "assigned label": "no"
  },
  {
    "residue sequence": "CGAACTAGGTCATTGACAGGACAGTAAATAGTAA",
    "assigned label": "yes"
  },
  {
    "residue sequence": "AATAGCAGGCCAAGGGTCACTCAAGATTAGTCCG",
    "assigned label": "no"
  },
  {
    "residue sequence": "TAGCCTAGGTCATGGGCAAGTATACCACGCGAAC",
    "assigned label": "no"
  },
  {
    "residue sequence": "CGTACTGGGCCAAAGGTCATTGATTCCAATGCTC",
    "assigned label": "yes"
  },
  {
    "residue sequence": "ACTATTAGTTGACTTAGGGCTACCGATACGACGC",
    "assigned label": "no"
  },
  {
    "residue sequence": "TTACCAAGGTGAAAGGTCGTTTATGCACGCCTTG",
    "assigned label": "yes"
  },
  {
    "residue sequence": "GCTATTTGTTGAAAGGGCAACCGAATGATTCTCG",
    "assigned label": "no"
  }
]

====

Test system: RARb:RXRa (NR concentration 270 nM, RXRa partner concentration 90 nM)
protocol: PBM binding z-score (relative to random genomic background probes); higher = stronger binding; sequences stand for … in GC…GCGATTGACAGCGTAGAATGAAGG

[
  {
    "residue sequence": "TCTTGTAGATCATAGGTTAAGAAAGCCGAAGCCT",
    "PBM binding z-score": 0.882
  },
  {
    "residue sequence": "ATCGAAAGGTCGTAGGTGAGTATACCCACCCGAA",
    "PBM binding z-score": 3.76
  },
  {
    "residue sequence": "CCTTCTGGGCCAAGGTCATTGATCAGTCAAAGCA",
    "PBM binding z-score": 3.39
  },
  {
    "residue sequence": "ACTTACGGGTCAACTAGGTTATAGCACGCGTATA",
    "PBM binding z-score": 4.36
  },
  {
    "residue sequence": "CCTACAGGGCCAAAAAGGTCATTGATGCCGATAA",
    "PBM binding z-score": 4.26
  },
  {
    "residue sequence": "GATACAGGGTCAGATAGAGGCCAGAGTATGGAAA",
    "PBM binding z-score": 3.97
  },
  {
    "residue sequence": "TGAATGAGGTTAATGATCAGGGAACGTGGCGTCG",
    "PBM binding z-score": 1.52
  },
  {
    "residue sequence": "CCGACTGGGGCAAGGTTCCCATAACGCACAGCCA",
    "PBM binding z-score": 0.825
  },
  {
    "residue sequence": "TAGCCTAGGTCATGGGCCAGGATACCACGCGAAC",
    "PBM binding z-score": 3.8
  },
  {
    "residue sequence": "CAAACTAGGTCAAGGTCAAAGCCGGTTTGTGCCA",
    "PBM binding z-score": 5.2
  },
  {
    "residue sequence": "ATATGTAGGTTATCGGGTCAGTCAGTTTGCGCAT",
    "PBM binding z-score": 2.55
  },
  {
    "residue sequence": "CAAACTAGGTCACCGGTAGGTCAAAGTCCGCATG",
    "PBM binding z-score": 4.95
  },
  {
    "residue sequence": "ATATGTAGTTTAGCTGGGGTCATTCAGACTAGGC",
    "PBM binding z-score": 2.74
  },
  {
    "residue sequence": "TCTAGTTGGTGAAAGGTCACACACTCGAAATGCG",
    "PBM binding z-score": 4.79
  },
  {
    "residue sequence": "ATCGTAAGGTCGAAGGTGAGTATACCCACCCGAA",
    "PBM binding z-score": 2.74
  },
  {
    "residue sequence": "TCTTGTAGATTAATAGAGGTTAAGAAAGTGCGCT",
    "PBM binding z-score": 1.21
  },
  {
    "residue sequence": "ACTATTAGTTTAGACGAGGGCAACCGATAGGTTG",
    "PBM binding z-score": 1.25
  },
  {
    "residue sequence": "TCTAGGTGGTCAAAGGTCACACACTCGAAATGCG",
    "PBM binding z-score": 5.22
  },
  {
    "residue sequence": "CGAACCAGGTCAGAACAGGACAGTGAAGGATGAT",
    "PBM binding z-score": 3.05
  },
  {
    "residue sequence": "ACAGACAGGTGTTGAAGGTAACTCAGGCTATCAT",
    "PBM binding z-score": -0.084
  },
  {
    "residue sequence": "TAGCCTAGGTCATGGGCCAGTATACCACGCGAAC",
    "PBM binding z-score": 3.7
  },
  {
    "residue sequence": "TCATATAGGTAAATGCTAGCTGAAAGTCCGATCT",
    "PBM binding z-score": 0.242
  },
  {
    "residue sequence": "AATACAGGCTCATCGTAGGCCAGAGTACGCACAG",
    "PBM binding z-score": -0.11
  },
  {
    "residue sequence": "CCTACTGGGCCATGGTCATTGATCAGTCAAAGCA",
    "PBM binding z-score": 0.532
  },
  {
    "residue sequence": "TCTATTCGTTGAAGGGCAACCGACGAGTCCGTTT",
    "PBM binding z-score": 1.56
  },
  {
    "residue sequence": "CCTATTAGTTGACCTTAAGGGCAACCGAAGCTCG",
    "PBM binding z-score": 3.64
  }
]

====

Test system: PPARg:RXRa 90nM:30nM, anti-RXR (NR concentration 90 nM, RXRa partner concentration 30 nM)
protocol: PBM binding z-score (relative to random genomic background probes); higher = stronger binding; sequences stand for … in GC…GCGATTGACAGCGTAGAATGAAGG
Please note: 1 applies when PBM binding z-score is 2 or greater, and 0 applies otherwise.

[
  {
    "residue sequence": "ATATGTAGGTTACATCCGGGTCATTGAGGCTATG",
    "assigned label": 1
  },
  {
    "residue sequence": "TCATCTAGGTAAAAGGTGAAAGTCGGTGTGGTAA",
    "assigned label": 1
  },
  {
    "residue sequence": "ATCGTAAGGTCGAGGTGAGTATAGAGAAAGGGAA",
    "assigned label": 0
  },
  {
    "residue sequence": "CCTAGCAGGCAAATCTGGGTCACTCAAGGCTTGA",
    "assigned label": 0
  },
  {
    "residue sequence": "CCTCGGAAGACAGAAGGTCAGAGCTGTCCGCTTT",
    "assigned label": 0
  }
]
